Entries and their measured Relative binding affinity follow.
Molecular target: UniProtKB P07812
Sequence (whole entry): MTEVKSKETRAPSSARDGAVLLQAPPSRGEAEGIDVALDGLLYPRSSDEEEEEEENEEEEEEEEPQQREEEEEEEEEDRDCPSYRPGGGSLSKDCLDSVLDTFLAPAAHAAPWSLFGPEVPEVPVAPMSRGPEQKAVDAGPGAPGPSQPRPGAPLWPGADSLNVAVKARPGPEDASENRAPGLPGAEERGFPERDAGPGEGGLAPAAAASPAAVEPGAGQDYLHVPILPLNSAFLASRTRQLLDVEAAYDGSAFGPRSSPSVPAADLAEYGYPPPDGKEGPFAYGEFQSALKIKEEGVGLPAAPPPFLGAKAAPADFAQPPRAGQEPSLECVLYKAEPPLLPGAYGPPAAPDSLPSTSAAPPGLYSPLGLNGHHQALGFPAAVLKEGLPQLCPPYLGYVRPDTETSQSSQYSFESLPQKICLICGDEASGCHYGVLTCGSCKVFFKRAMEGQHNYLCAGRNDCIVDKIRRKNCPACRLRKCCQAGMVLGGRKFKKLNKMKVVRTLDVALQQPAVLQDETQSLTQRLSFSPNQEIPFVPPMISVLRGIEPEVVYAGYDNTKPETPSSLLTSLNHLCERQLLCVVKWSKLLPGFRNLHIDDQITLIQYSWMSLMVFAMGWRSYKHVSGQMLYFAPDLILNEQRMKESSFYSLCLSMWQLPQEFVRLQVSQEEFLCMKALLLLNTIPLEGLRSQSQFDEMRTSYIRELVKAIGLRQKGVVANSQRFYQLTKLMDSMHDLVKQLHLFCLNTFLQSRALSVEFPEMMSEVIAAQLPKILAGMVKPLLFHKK
Assay: In vitro displacement of progesterone from oviduct progesterone receptor relative to progesterone
Number in %, nothing else.

Here are 2 molecules together with their reported answers.
C#C[C@@H](O)C12CCCC1C1CCC3=CC(=O)CC[C@@H]3C1CC2 (stereo partly drawn) : 0.6
CC(=O)OC(C(C)=O)[C@@]12CCC[C@H]1[C@@H]1CCC3=CC(=O)CC[C@@H]3[C@H]1CC2 (stereo partly drawn) : 0.1

Then there is this molecule:
In: Name the reported Relative binding affinity value associated with the molecule CC(=O)[C@H]1CC[C@H]2[C@@H]3CCC4=CC(=O)CC[C@]4(C)[C@H]3CC[C@]12C
Out: 100
